Data provenance is the domain aggregation screens of Martell et al. (2025).

# Protocol details: soluble fraction after stress (log2 fold change); higher = more stays soluble; pooled small domains, quantitative proteomics
# Measurement context: stress: pH 4
Attribute measured: soluble fraction (log2)
Please state the value as a number alone, without comment.

HMGVEVEVPNVKGKLVADAEYELGLAQLTPVRTDSAYNRNLPPGTVLEQLPASGSHVKEGREIYLTINST: 0.155
HMQKYSTIIGVIELRQSGIGYRTTKKRYNIGNSTVTLIMNRFHELGLSLEELKAMPPKKVEEAFYPPE: -0.0306
HMAVSGRGSIIGGVATVLDDFADSGKVWLEGEAWQARSSVPLKQDQEVVVRAMDGLVLVVEPVA: -0.869
HMYTVQQLARLAGITPRTLRHYDAIGLLKPTRVGENGYRYYGSEALLRLQSILLYRELDMPLEDIRRVLDS: -1.23
HMFSVVDKITLQEELKKLSKKEQLLIQLRYYDELNQEEIAKIFHVSQVQISRMEKKIIEKLKKQF: 0.273

Query: Return reported soluble fraction (log2). Input sequence: "HMHDIPDITDLRPLRHTLGLTLAHAAQQLNTTTATISRLERGQHRNDHLATTYRTWLHTHPT"
Result: 0.08

Query: // fetch soluble fraction (log2) given entry "HMWTKKELWNAIAKLPKKQRTVVMMRIAQNLPYKDISEITGMSIGSAKVNYHHAVNSLKQWLS"
Result: 0.22

Query: Consider the sequence "HMDIINLADNIARLRRRRQITQEELADYLGVTKAAVSKWENRQTMPDILLLPRLAGLFEVTIDELVGY" and give its recorded soluble fraction (log2).
Result: -1.72

Query: Please look at this sequence and report its soluble fraction (log2): "HMSNDRSYLARLQDYYAEHRALPSYASIGALLGLRSKSSVAALVARLKLAGFVESTPDRRLAPTRRFF"
Result: 0.344
